Assay: t1/2 in monkey after IV dose (34 umol/kg)
Assay type: ADME, organism-based
Settings: simiiformes, in vivo
MEASUREMENT LABEL: half-life (min)
Give the value, in units of min, as a plain number.

Q: Look up half-life of NC(=O)N(O)CC1CC1c1cccc(Oc2ccccc2)c1 (stereo unspecified) and report it.
Ans: 24

====

Target: UniProt P09917
Sequence (P09917 whole entry): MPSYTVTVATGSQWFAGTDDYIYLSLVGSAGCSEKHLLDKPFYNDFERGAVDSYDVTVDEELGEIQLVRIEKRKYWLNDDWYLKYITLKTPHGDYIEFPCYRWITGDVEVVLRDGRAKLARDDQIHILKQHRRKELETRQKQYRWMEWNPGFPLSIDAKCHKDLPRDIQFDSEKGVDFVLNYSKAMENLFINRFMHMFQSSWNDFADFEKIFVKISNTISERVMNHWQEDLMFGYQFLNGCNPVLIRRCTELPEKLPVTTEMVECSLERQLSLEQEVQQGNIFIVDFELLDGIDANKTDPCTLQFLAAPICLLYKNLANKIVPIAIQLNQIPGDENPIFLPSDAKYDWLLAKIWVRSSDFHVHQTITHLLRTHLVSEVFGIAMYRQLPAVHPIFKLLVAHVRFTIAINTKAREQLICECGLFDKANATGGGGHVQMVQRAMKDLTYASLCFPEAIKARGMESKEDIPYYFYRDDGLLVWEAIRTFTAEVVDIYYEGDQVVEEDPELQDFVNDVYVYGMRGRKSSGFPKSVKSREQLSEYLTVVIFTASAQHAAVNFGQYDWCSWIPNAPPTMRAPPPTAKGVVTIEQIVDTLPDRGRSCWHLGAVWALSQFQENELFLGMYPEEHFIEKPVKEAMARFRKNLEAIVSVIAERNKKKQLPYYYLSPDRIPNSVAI
Assay: Inhibition of 5-lipoxygenase (5-LO) measured as LTB4 production in human whole blood stimulated with calcium ionophore (A23187).
MEASUREMENT LABEL: pIC50
Formally, pIC50 is defined as -log10 of the concentration c, with c in mol/L.

# example entries with known answers
COMPOUND | MEASUREMENT LABEL | VALUE MEASURED
Cc1ccsc1C(C)N(O)C(N)=O (centres undefined) | pIC50 | 5.39
CC(c1ccc(-c2ccccn2)s1)N(O)C(N)=O (centres undefined) | pIC50 | 5.40
CC(C#Cc1ccoc1)N(O)C(N)=O (centres undefined) | pIC50 | 5.70

Q: Look up pIC50 of CC(c1sc2ccccc2c1Cl)N(O)C(N)=O (centres undefined) and report it.
Ans: 5.43

Q: Look up pIC50 of Cc1cc(C)c(-c2ccc(C(C)N(O)C(N)=O)o2)c(C)c1 (centres undefined) and report it.
Ans: 5.80

Q: Look up pIC50 of CC(C1CC1)N(O)C(N)=O (centres undefined) and report it.
Ans: 5.77

Q: Look up pIC50 of CC(C1CC1c1ccco1)N(O)C(N)=O (centres undefined) and report it.
Ans: 6.05

Q: Look up pIC50 of COc1c(C(C)N(O)C(N)=O)sc2ccccc12 (centres undefined) and report it.
Ans: 5.89

Q: Look up pIC50 of CC(c1cccs1)N(O)C(N)=O (centres undefined) and report it.
Ans: 5.74

====

Test: Plasma drug levels one hour post dose in rat (PO dose)
Assay type: ADME, organism-based
Settings: read-out: Plasma level
Everything with concentration at 1 h lower than 20 µM is no; everything else, including exactly 20 µM, is yes.

COMPOUND | CAT
CC(C(=O)N(C)O)c1cc2ccccc2s1 (stereo not given) | no

Q: Determine whether this compound has concentration at 1 h no lower than 20 µM: Cc1ccc(C(C)N(O)C(N)=O)s1 (stereo not given)
Ans: yes

Q: Determine whether this compound has concentration at 1 h no lower than 20 µM: CC(/C=C/c1ccoc1)N(O)C(N)=O (stereo not given)
Ans: yes

Q: Determine whether this compound has concentration at 1 h no lower than 20 µM: CC(c1ccc(Cc2cccs2)s1)N(O)C(N)=O (stereo not given)
Ans: no

Q: Determine whether this compound has concentration at 1 h no lower than 20 µM: `Cc1cc(CN(O)C(N)=O)c(C)o1`
Ans: yes
